Where do the numbers come from? From PubChem BioAssay (NCI).

Tested on: OVCAR-5 ovarian
Assay: NCI tumour cell line growth inhibition, 48 h
Listed here: items and their measured TGI.

> print(dat)
                                   compound     assay.system  property  measured.result
1    CC(C)C1=Cc2ccc3c(c2C(=O)C1=O)CCCC3(C)C  OVCAR-5 ovarian       TGI          33.8 µM
2  C=CCC1(c2ccc(OC)cc2)C=CC(=O)CC1 (stereo unspecified)  OVCAR-5 ovarian       TGI         > 100 µM
3     Cc1cc2c(=O)c3ccccc3[nH]c2c(C(N)=O)c1C  OVCAR-5 ovarian       TGI         > 100 µM
4  COCC(OC)C(CC=C(C#N)C#N)OC (stereo unspecified)  OVCAR-5 ovarian       TGI         > 100 µM
5  COc1ccc(C2c3cn[nH]c3CC3CCCCC32)cc1 (stereo unspecified)  OVCAR-5 ovarian       TGI          34.8 µM

# input Report its TGI with OVCAR-5 ovarian as the test system: COC(=O)/C(=N\NC(N)=S)C(C(=O)OC)C(=O)C(=O)Nc1ccc(C)cc1 (stereo unspecified)
# output > 100 µM

# input Report its TGI with OVCAR-5 ovarian as the test system: C/C(N=NC(=S)N1CC2CCC(CC2)C1)=C1\C=CC=CN1O
# output > 100 µM

# input Report its TGI with OVCAR-5 ovarian as the test system: COc1cc(N=Nc2ccc(O)c3ncccc23)c2ncccc2c1
# output > 100 µM

# input Report its TGI with OVCAR-5 ovarian as the test system: COc1cc(O)c2c(c1)C(=O)c1cc3c(c(O)c1C2=O)C(OC1OC(C)C(OC)C(O)C1OC)C(OC)C(C)(O)C3=O (stereo unspecified)
# output 33.6 µM

# input Report its TGI with OVCAR-5 ovarian as the test system: Cn1c(SCc2ccc(F)cc2)nnc1C12CC3CC(CC(C3)C1)C2
# output > 100 µM

# input Report its TGI with OVCAR-5 ovarian as the test system: Nc1ncc(-c2ccc3ncnc(Nc4ccc(F)c(Cl)c4)c3c2)cn1
# output 3.69 µM
